We begin with a simple list: items and their reported melting point.
parameterMeasured: melting point

{"molSmiles": "O=c1[nH]c2ccc(C(F)(F)F)cc2c(-c2cc(Cl)ccc2O)c1Sc1ccccc1O", "parameterMeasured": "melting point", "observed": "290 to 292 °C"}
{"molSmiles": "O=c1[nH]c2ccc(C(F)(F)F)cc2c(-c2cc(Cl)ccc2O)c1Sc1ccc(O)cc1", "parameterMeasured": "melting point", "observed": "180 to 190 °C"}
{"molSmiles": "O=c1[nH]c2ccc(C(F)(F)F)cc2c(-c2cc(Cl)ccc2O)c1Sc1ncccn1", "parameterMeasured": "melting point", "observed": "302 to 303 °C"}
{"molSmiles": "Nc1nnc(Sc2c(-c3cc(Cl)ccc3O)c3cc(C(F)(F)F)ccc3[nH]c2=O)s1", "parameterMeasured": "melting point", "observed": "260 to 270 °C"}
{"molSmiles": "O=c1[nH]c2ccc(C(F)(F)F)cc2c(-c2cc(Cl)ccc2O)c1Sc1ccncc1", "parameterMeasured": "melting point", "observed": "257 to 260 °C"}
{"molSmiles": "O=c1[nH]c2ccc(C(F)(F)F)cc2c(-c2cc(Cl)ccc2O)c1SCc1ccc(O)cc1", "parameterMeasured": "melting point", "observed": "206 to 208 °C"}
